target: Induced myeloid leukemia cell differentiation protein Mcl-1 (Homo sapiens, UniProt Q07820); assay: Inhibition of Mcl-1 (172-327) (unknown origin) using BIOTIN-AHXGQVGRQLAIIGDDINR-amide peptide by TR-FRET based BAK peptide displacement assay
Sequence (Q07820 whole entry): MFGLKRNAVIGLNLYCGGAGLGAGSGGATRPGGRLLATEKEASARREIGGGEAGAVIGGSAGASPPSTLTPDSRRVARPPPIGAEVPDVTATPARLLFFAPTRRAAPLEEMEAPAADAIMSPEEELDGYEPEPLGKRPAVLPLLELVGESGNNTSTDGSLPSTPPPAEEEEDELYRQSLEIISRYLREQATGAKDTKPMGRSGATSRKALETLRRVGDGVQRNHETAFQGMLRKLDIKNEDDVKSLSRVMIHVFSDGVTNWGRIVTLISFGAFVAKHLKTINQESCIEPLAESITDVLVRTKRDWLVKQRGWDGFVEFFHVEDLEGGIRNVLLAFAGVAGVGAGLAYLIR
Listed here are compounds together with their documented pIC50.
Units for pIC50: none; it is -log10 of a concentration expressed in mol/L.

In: Would you mind telling me what pIC50 value was observed for `CCOc1cccc2c1OCC(=O)N[C@H]1CC[C@H](CC1)CC(=O)N[C@@H](c1cccnc1)C(=O)N[C@H](Cc1ccccc1)C(=O)NCCc1ccc(cc1)OC2` ?
Out: 7.37

In: Requested read-out: pIC50. Entry: `CCOc1cccc2c1OCC(=O)N[C@H]1CC[C@H](CC1)CC(=O)N[C@@H](CC1CCCCC1)C(=O)N[C@H](Cc1ccccc1)C(=O)N[C@H](C(=O)NC)Cc1ccc(cc1)OC2`
Out: 7.00

In: What value of measured pIC50 is listed for `CCOc1cc(C#Cc2cc(C)cc(C)c2)cc2c1OCC(=O)N[C@H]1CC[C@H](CC1)CC(=O)N[C@@H](c1ccccc1)C(=O)N[C@H](Cc1ccccc1)C(=O)NCCc1ccc(cc1)OC2` ?
Out: 4.85

---

experiment: Metabolic stability in human liver S9 fraction assessed as half life; assay type: ADME, subcellular; details: liver S9 fraction
quantity measured: half-life (min)
# output: bare number, implied unit min

INSERT INTO results (smiles_str, quantity_measured, value_measured) VALUES
  ('CCOc1cccc2c1OCC(=O)N[C@H]1CC[C@H](CC1)CC(=O)N[C@@H](c1ccccc1)C(=O)N[C@H](Cc1ccccc1)C(=O)NCCc1ccc(cc1)OC2', 'half-life', 8);

Okay, now this molecule:
In: Reported half-life, molecule `CCOc1cccc2c1OCC(=O)N[C@H]1CC[C@H](CC1)CC(=O)N[C@@H](c1ccccc1)C(=O)N[C@H](Cc1ccccc1)C(=O)N[C@H](C(=O)NC)Cc1ccc(cc1)OC2` : ____
Out: 37

---

molecular target: Induced myeloid leukemia cell differentiation protein Mcl-1 (Homo sapiens, UniProt Q07820); assay: Inhibition of Mcl-1 (172-327) (unknown origin) using BIOTIN-AHXGQVGRQLAIIGDDINR-amide peptide by TR-FRET based BAK peptide displacement assay
// reported pIC50 per item
Scale explanation: pIC50 corresponds to minus log10 of a concentration expressed in moles per litre.

Study these solved cases before continuing.
INSERT INTO results (smiles_str, value_measured) VALUES
  ('O=C1C[C@H]2CC[C@H](CC2)NC(=O)COc2c(Cl)cccc2COc2ccc(cc2)CCNC(=O)[C@@H](Cc2ccccc2)NC(=O)[C@H](c2ccccc2)N1', 7.11),
  ('CCOc1cccc2c1OCC(=O)N[C@H]1CC[C@H](CC1)CC(=O)N[C@@H](c1ccnc(OC)c1)C(=O)N[C@H](Cc1ccccc1)C(=O)NCCc1ccc(cc1)OC2', 7.47);

In: Entry `CCOc1cccc2c1OCC(=O)N[C@H]1CC[C@H](CC1)CC(=O)N[C@@H](c1ccccc1)C(=O)N[C@H](Cc1ccccc1)C(=O)N[C@H](C(=O)NC)Cc1ccc(cc1)OC2` : reported pIC50 = ?
Out: 7.30

In: Need pIC50 of `CCOc1cccc2c1OC(C)(C)C(=O)N[C@H]1CC[C@H](CC1)CC(=O)N[C@@H](C(C)C)C(=O)N[C@H](Cc1ccccc1)C(=O)NCCc1ccc(cc1)OC2` , thanks.
Out: 6.86

In: Which measured pIC50 value corresponds to `CCOc1cc(Oc2cc(C)c(Cl)c(C)c2)cc2c1OCC(=O)N[C@H]1CC[C@H](CC1)CC(=O)N[C@@H](c1ccccc1)C(=O)N[C@H](Cc1cccnc1)C(=O)NCCc1ccc(cc1)OC2` ?
Out: 4.85

In: Reported pIC50 for `CCOc1cc(C#Cc2ccc(C(C)(C)C)cc2)cc2c1OCC(=O)N[C@H]1CC[C@H](CC1)CC(=O)N[C@@H](c1ccccc1)C(=O)N[C@H](Cc1ccccc1)C(=O)NCCc1ccc(cc1)OC2` : what is it?
Out: 5.74

In: Fill blank: measured pIC50 of the compound `CCOc1cccc2c1OC(C)(C)C(=O)N[C@H]1CC[C@H](CC1)CC(=O)N[C@@H](c1ccccc1)C(=O)N[C@H](Cc1ccccc1)C(=O)NCCc1ccc(cc1)OC2` is ____.
Out: 7.23

In: So what's the measured pIC50 for this one? `CCOc1cc(-c2ccc(F)c(C)c2)cc2c1OCC(=O)N[C@H]1CC[C@H](CC1)CC(=O)N[C@@H](c1ccccc1)C(=O)N[C@H](Cc1ccccc1)C(=O)NCCc1ccc(cc1)OC2`
Out: 4.27

In: # query: pIC50 of entry `CCOc1cccc2c1OCC(=O)N[C@H]1CC[C@H](CC1)CC(=O)N[C@@H](c1ccccc1)C(=O)N(Cc1ccccc1)CC(=O)NCCc1ccc(cc1)OC2`
Out: 6.63

In: Returns the measured pIC50 for the input compound. Input: `CCOc1cc(Oc2cc(C)c(Cl)c(C)c2)cc2c1OCC(=O)N[C@H]1CC[C@H](CC1)CC(=O)N[C@@H](c1ccccc1)C(=O)N[C@H](Cc1ccncc1)C(=O)NCCc1ccc(cc1)OC2`
Out: 5.28

In: May I ask what pIC50 has been recorded for `CCOc1cccc2c1OCC(=O)N[C@H]1CC[C@H](CC1)CC(=O)N[C@@H](c1ccccc1)C(=O)N[C@H](Cc1ccccc1)C(=O)N[C@H](C(=O)NC)Cc1ccc(cc1)NC2` ?
Out: 7.10

In: I'd like to know its pIC50. The compound in question is `CCOc1cc(-c2cc(C)cc(C)c2)cc2c1OCC(=O)N[C@H]1CC[C@H](CC1)CC(=O)N[C@@H](c1ccccc1)C(=O)N[C@H](Cc1ccccc1)C(=O)NCCc1ccc(cc1)OC2`
Out: 4.82
